# ERβ/ERα ratio listing for each entry below
System: human estrogen receptor β receptor (hERβ) (Homo sapiens, UniProt Q92731)
Sequence (Q92731 whole entry): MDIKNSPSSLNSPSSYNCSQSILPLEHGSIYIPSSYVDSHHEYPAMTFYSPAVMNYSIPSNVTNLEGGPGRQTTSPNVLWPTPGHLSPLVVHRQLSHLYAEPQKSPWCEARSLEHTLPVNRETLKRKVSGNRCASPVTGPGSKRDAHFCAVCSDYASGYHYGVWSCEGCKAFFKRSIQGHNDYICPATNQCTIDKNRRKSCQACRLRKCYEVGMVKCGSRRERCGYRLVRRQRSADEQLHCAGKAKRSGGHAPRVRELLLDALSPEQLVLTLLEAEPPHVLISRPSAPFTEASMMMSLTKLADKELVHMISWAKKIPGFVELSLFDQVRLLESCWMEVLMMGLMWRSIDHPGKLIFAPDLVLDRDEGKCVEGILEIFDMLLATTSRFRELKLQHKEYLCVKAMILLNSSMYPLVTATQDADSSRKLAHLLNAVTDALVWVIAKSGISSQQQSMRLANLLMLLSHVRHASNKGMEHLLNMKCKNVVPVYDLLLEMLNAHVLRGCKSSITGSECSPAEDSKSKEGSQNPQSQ
Experimental details: ERβ transactivation bioassay in recombinant CHO cells (rat oxytocin promoter, luciferase reporter)
Format: cell-based
Setup conditions: ERβ agonistic selectivity over ERα, transactivation data

Before answering, review these 3 worked examples.
- Compound: "CC1C(c2ccc(O)cc2)Cc2ccc(O)cc2C1Cc1cc(F)ccc1F (racemic)"
  Measured parameter: "ERβ/ERα ratio"
  Measured result: ">167"
- Compound: "COc1ccccc1CC1c2cc(O)ccc2CC(c2ccc(O)cc2)C1C (centres unmarked)"
  Measured parameter: "ERβ/ERα ratio"
  Measured result: ">40"
- Compound: "CC1C(c2ccc(O)cc2)Cc2ccc(O)cc2C1Cc1c(F)cccc1F (racemic)"
  Measured parameter: "ERβ/ERα ratio"
  Measured result: ">102"

Which ERβ/ERα ratio reading was recorded for the compound CC1C(c2ccc(O)cc2)Cc2ccc(O)cc2C1Cc1ccccc1Cl (racemic) ?
339

Which ERβ/ERα ratio reading was recorded for the compound CCC1C(c2ccc(O)cc2)Cc2ccc(O)cc2C1Cc1ccc(F)cc1 (racemic) ?
12

Which ERβ/ERα ratio reading was recorded for the compound CC1C(c2ccc(O)cc2F)Cc2ccc(O)cc2C1Cc1ccccc1F (racemic) ?
>333

Which ERβ/ERα ratio reading was recorded for the compound C[C@H]1[C@@H](c2ccc(O)cc2)Cc2ccc(O)cc2[C@H]1Cc1ccc(F)cc1 (single isomer, unassigned) [Compound 11g] ?
19

Which ERβ/ERα ratio reading was recorded for the compound CCC1C(c2ccc(O)cc2)Cc2ccc(O)cc2C1Cc1ccccc1C#N (racemic) ?
>204

----------
# ERβ eudismic ratio listing for each entry below
System: human estrogen receptor β receptor (hERβ) (Homo sapiens)
Experimental details: ERβ transactivation bioassay in recombinant CHO cells (rat oxytocin promoter, luciferase reporter)
Assay type: cell-based
Setup conditions: ratio of the activities of the eutomer and the distomer on ERβ
Reply with the value as a number alone.

- Compound: "CC[C@H]1[C@@H](c2ccc(O)c(F)c2)Cc2ccc(O)cc2[C@H]1Cc1ccccc1F (single isomer, unassigned) [Compound 11q]"
  System: "human estrogen receptor β receptor (hERβ) (Homo sapiens)"
  ERβ eudismic ratio: 7

Now let's try a different one.
Checklist item: ERβ eudismic ratio tested on human estrogen receptor β receptor (hERβ) (Homo sapiens), entry C[C@H]1[C@@H](c2ccc(O)cc2)Cc2ccc(O)cc2[C@H]1Cc1cccc(F)c1 (single isomer, unassigned) [Compound 11f] , value?
13

----------
System: human estrogen receptor β receptor (hERβ) (Homo sapiens, UniProt Q92731)
Experimental details: ERβ transactivation bioassay in recombinant CHO cells (rat oxytocin promoter, luciferase reporter)
Format: cell-based
Setup conditions: ERβ agonistic selectivity over ERα, transactivation data
Measured parameter: ERβ/ERα ratio
Reply with the value as a number alone.

- Compound: "CCC1C(c2ccc(O)cc2)Cc2ccc(O)cc2C1Cc1ccccc1F (racemic)"
  System: "human estrogen receptor β receptor (hERβ) (Homo sapiens, UniProt Q92731)"
  ERβ/ERα ratio: 77
- Compound: "CC1C(c2ccc(O)cc2)Cc2ccc(O)cc2C1Cc1ccccc1C#N (racemic)"
  System: "human estrogen receptor β receptor (hERβ) (Homo sapiens, UniProt Q92731)"
  ERβ/ERα ratio: 605
- Compound: "CC1C(c2ccc(O)cc2)Cc2ccc(O)cc2C1Cc1ccccc1 (racemic)"
  System: "human estrogen receptor β receptor (hERβ) (Homo sapiens, UniProt Q92731)"
  ERβ/ERα ratio: 51
- Compound: "CCC1C(c2ccc(O)cc2)Cc2ccc(O)cc2C1Cc1ccc(O)cc1 (racemic)"
  System: "human estrogen receptor β receptor (hERβ) (Homo sapiens, UniProt Q92731)"
  ERβ/ERα ratio: 2
- Compound: "CCC1C(c2ccc(O)cc2)Cc2ccc(O)cc2C1Cc1ccccc1 (racemic)"
  System: "human estrogen receptor β receptor (hERβ) (Homo sapiens, UniProt Q92731)"
  ERβ/ERα ratio: 18
- Compound: "CCC1C(c2ccc(O)cc2F)Cc2ccc(O)cc2C1Cc1ccccc1F (racemic)"
  System: "human estrogen receptor β receptor (hERβ) (Homo sapiens, UniProt Q92731)"
  ERβ/ERα ratio: 42

Now let's try a different one.
Which ERβ/ERα ratio reading was recorded for the compound CC[C@H]1[C@@H](c2ccc(O)cc2)Cc2ccc(O)cc2[C@H]1Cc1ccccc1F (single isomer, unassigned) [Compound 11b] ?
167

----------
# pEC50 listing for each entry below
System: human estrogen receptor β receptor (hERβ) (Homo sapiens, UniProt Q92731)
Experimental details: ERβ transactivation bioassay in recombinant CHO cells (rat oxytocin promoter, luciferase reporter)
Setup conditions: transactivation of luciferase via hERβ in CHO cells; read-out: ERβ agonistic EC50
Quick note: pEC50 values are minus log10 of concentrations in mol/L.

Before answering, review these 2 worked examples.
- Molecule: "C[C@H]1[C@@H](c2ccc(O)cc2)Cc2ccc(O)cc2[C@H]1Cc1c(F)cccc1F (single isomer, unassigned) [Compound 11i]"
  pEC50: 9.33
- Molecule: "CC1C(c2ccc(O)cc2)Cc2ccc(O)cc2C1Cc1c(F)cccc1F (racemic)"
  pEC50: 9.01

Which pEC50 reading was recorded for the molecule C[C@H]1[C@@H](c2ccc(O)cc2)Cc2ccc(O)cc2[C@H]1Cc1ccccc1F (single isomer, unassigned) [Compound 11a] ?
9.42

Which pEC50 reading was recorded for the molecule CC1C(c2ccc(O)cc2)Cc2ccc(O)cc2C1Cc1cc(F)ccc1F (racemic) ?
9.22

----------
System: human estrogen receptor α (hERα) (Homo sapiens)
Sequence (P03372 1-595): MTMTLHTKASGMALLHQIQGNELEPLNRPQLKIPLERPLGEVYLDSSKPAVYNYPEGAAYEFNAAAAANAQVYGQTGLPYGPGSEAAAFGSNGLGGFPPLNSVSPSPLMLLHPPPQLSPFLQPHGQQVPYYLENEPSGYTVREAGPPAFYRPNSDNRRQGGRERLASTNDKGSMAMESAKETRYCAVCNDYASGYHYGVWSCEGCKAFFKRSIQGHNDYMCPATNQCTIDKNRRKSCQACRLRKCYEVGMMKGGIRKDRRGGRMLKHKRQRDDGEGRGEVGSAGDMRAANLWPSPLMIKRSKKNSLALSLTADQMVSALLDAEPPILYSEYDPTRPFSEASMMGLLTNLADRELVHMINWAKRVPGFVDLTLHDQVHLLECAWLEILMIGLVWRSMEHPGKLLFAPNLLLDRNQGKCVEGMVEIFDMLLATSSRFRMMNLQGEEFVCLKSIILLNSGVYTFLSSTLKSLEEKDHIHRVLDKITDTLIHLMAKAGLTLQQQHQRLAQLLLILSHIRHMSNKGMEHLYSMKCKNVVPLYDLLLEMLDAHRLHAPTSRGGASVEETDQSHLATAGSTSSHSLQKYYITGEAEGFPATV
Experimental details: ERα transactivation bioassay in recombinant CHO cells (rat oxytocin promoter, luciferase reporter)
Assay type: cell-based
Setup conditions: ratio of the activities of the eutomer and the distomer on ERα
# ERα eudismic ratio listing for each entry below

Before answering, review these 5 worked examples.
- Molecule: "CC[C@H]1[C@@H](c2ccc(O)cc2)Cc2ccc(O)cc2[C@H]1Cc1ccccc1F (single isomer, unassigned) [Compound 11b]"
  ERα eudismic ratio: 0.9
- Molecule: "CC[C@H]1[C@@H](c2ccc(O)c(F)c2)Cc2ccc(O)cc2[C@H]1Cc1ccccc1F (single isomer, unassigned) [Compound 11q]"
  ERα eudismic ratio: "<0.3"
- Molecule: "C[C@H]1[C@@H](c2ccc(O)cc2)Cc2ccc(O)cc2[C@H]1Cc1ccccc1F (single isomer, unassigned) [Compound 11a]"
  ERα eudismic ratio: ">1.4"
- Molecule: "CC[C@H]1[C@@H](c2ccc(O)cc2)Cc2ccc(O)cc2[C@H]1Cc1ccc(F)cc1 (single isomer, unassigned) [Compound 11w]"
  ERα eudismic ratio: 0.4
- Molecule: "C[C@H]1[C@@H](c2ccc(O)cc2)Cc2ccc(O)cc2[C@H]1Cc1ccc(F)cc1 (single isomer, unassigned) [Compound 11g]"
  ERα eudismic ratio: ">4"

Which ERα eudismic ratio reading was recorded for the molecule C[C@H]1[C@@H](c2ccc(O)cc2)Cc2ccc(O)cc2[C@H]1Cc1cccc(F)c1 (single isomer, unassigned) [Compound 11f] ?
>4

----------
# ERβ/ERα ratio listing for each entry below
System: human estrogen receptor β receptor (hERβ) (Homo sapiens)
Experimental details: ERβ transactivation bioassay in recombinant CHO cells (rat oxytocin promoter, luciferase reporter)
Type: cell-based
Setup conditions: ERβ agonistic selectivity over ERα, transactivation data
Reply with the value as a number alone.

Checklist item: ERβ/ERα ratio tested on human estrogen receptor β receptor (hERβ) (Homo sapiens), entry CCCC1C(c2ccc(O)cc2)Cc2ccc(O)cc2C1Cc1ccccc1F (racemic) , value?
33

Checklist item: ERβ/ERα ratio tested on human estrogen receptor β receptor (hERβ) (Homo sapiens), entry CC1C(c2ccc(O)cc2)Cc2ccc(O)cc2C1Cc1ccccc1F (racemic) , value?
193

Checklist item: ERβ/ERα ratio tested on human estrogen receptor β receptor (hERβ) (Homo sapiens), entry C[C@H]1[C@@H](c2ccc(O)cc2)Cc2ccc(O)cc2[C@H]1Cc1cccc(F)c1 (single isomer, unassigned) [Compound 11f] , value?
21

Checklist item: ERβ/ERα ratio tested on human estrogen receptor β receptor (hERβ) (Homo sapiens), entry CC[C@H]1[C@@H](c2ccc(O)cc2)Cc2ccc(O)cc2[C@H]1Cc1ccc(F)cc1 (single isomer, unassigned) [Compound 11w] , value?
61

Checklist item: ERβ/ERα ratio tested on human estrogen receptor β receptor (hERβ) (Homo sapiens), entry C[C@H]1[C@@H](c2ccc(O)cc2)Cc2ccc(O)cc2[C@H]1Cc1ccccc1F (single isomer, unassigned) [Compound 11a] , value?
189

Data origin, for the record: patent EP2406206B1
